system: NEK4 (Homo sapiens, UniProt P51957)
Sequence (P51957 whole entry): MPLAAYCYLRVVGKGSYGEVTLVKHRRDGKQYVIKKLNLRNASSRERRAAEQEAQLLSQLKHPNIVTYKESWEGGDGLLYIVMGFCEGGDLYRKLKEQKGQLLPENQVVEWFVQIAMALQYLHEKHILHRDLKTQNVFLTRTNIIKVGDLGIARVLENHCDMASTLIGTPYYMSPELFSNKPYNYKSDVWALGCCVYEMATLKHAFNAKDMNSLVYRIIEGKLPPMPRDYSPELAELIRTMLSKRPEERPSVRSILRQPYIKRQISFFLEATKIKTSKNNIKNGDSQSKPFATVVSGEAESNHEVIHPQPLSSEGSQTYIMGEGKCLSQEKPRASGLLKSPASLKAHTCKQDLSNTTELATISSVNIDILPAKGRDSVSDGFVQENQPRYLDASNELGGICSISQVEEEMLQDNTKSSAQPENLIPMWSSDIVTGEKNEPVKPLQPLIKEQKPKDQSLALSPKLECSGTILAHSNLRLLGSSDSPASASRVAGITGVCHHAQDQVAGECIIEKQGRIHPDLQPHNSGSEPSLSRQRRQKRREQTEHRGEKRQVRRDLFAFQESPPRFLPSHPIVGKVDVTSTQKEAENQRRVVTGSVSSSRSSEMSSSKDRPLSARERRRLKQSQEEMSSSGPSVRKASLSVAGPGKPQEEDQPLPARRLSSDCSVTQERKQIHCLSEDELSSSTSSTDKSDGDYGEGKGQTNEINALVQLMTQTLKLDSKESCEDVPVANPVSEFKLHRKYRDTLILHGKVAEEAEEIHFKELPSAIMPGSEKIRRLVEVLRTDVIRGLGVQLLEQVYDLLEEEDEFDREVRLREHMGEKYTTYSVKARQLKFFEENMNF
method_notes: radiometric kinase assay (Eurofins), IC50
Format: biochemical
measurement_type: IC50

**Q:** Reported IC50, compound "Fc1ccc2ncnc(NCCc3ccc(Cl)cc3)c2c1" : ____
**A:** ~1000 nM

Entry source: paper PMC7827406
